# target.under.test: PDE I (Cavia porcellus)
# test: Inhibitory concentration against cGMP PDE I enzyme in guinea pig
assay.readout: IC50

Field: example entries. Status: answers known.
IC50 in this record for CCC1CC(=O)NN=C1c1ccc(-n2ccnc2)cc1 (centres undefined) : > 1000 µM

IC50 in this record for `O=C1CCC(c2cccc(-n3ccnc3)c2)=NN1` : > 1000 µM

IC50 in this record for `Nc1cc(-c2ccc(-n3ccnc3)cc2)nnc1O` : > 500 µM

More entries:
IC50 in this record for `CN1N=C(c2ccc(-n3ccnc3)cc2)CCC1=O` : > 1000 µM

----------
# target.under.test: Phosphodiesterase 3 (Homo sapiens, UniProt Q14432+Q13370)
# test: Inhibition of cAMP PDE III enzyme in guinea pig at 1E-5M concentration
# Assay type: protein assay
# reported.conditions: Cavia porcellus; target entry is the homologue from another species
Binary call on inhibition: true from 50% upward, false beneath that.

Is reported inhibition greater than or equal to 50% here: CCC1CC(=O)NN=C1c1ccc(-n2ccnc2)cc1 (stereo not drawn)
false

Is reported inhibition greater than or equal to 50% here: `CN1N=C(c2ccc(-n3ccnc3)cc2)CCC1=O`
false

Is reported inhibition greater than or equal to 50% here: `O=C1CCC(c2ccc(NC3=NCCN3)cc2)=NN1`
true

Is reported inhibition greater than or equal to 50% here: `O=C1CCC(c2ccc(-c3nn[nH]n3)cc2)=NN1`
true

More entries:
Is reported inhibition greater than or equal to 50% here: `O=C1CCC(c2ccc(NC3=NCCO3)cc2)=NN1`
true

Is reported inhibition greater than or equal to 50% here: `Cn1nc(-c2ccc(-n3ccnc3)cc2)ccc1=O`
false

Is reported inhibition greater than or equal to 50% here: `NC(=O)c1cc(-c2ccc(-n3ccnc3)cc2)nnc1O`
false

Is reported inhibition greater than or equal to 50% here: `NNC(=O)c1cc(-c2ccc(-n3ccnc3)cc2)nnc1O`
false

Is reported inhibition greater than or equal to 50% here: `O=C1CCC(c2ccc(-n3ccnc3)cc2)=NN1`
true

Is reported inhibition greater than or equal to 50% here: `O=C1CCC(c2ccc(-n3cnc(CO)c3)cc2)=NN1`
true

Is reported inhibition greater than or equal to 50% here: CC1CC(O)=NN=C1c1ccc(-n2ccnc2)cc1 (stereo not drawn)
true

Is reported inhibition greater than or equal to 50% here: `O=C1CCC(c2ccc(-n3cccc3)cc2)=NN1`
true
